Each entry below carries its reported Ki.
- Experimental Target: Adenosine receptor A3 (Homo sapiens)
- Sequence (P0DMS8 whole entry): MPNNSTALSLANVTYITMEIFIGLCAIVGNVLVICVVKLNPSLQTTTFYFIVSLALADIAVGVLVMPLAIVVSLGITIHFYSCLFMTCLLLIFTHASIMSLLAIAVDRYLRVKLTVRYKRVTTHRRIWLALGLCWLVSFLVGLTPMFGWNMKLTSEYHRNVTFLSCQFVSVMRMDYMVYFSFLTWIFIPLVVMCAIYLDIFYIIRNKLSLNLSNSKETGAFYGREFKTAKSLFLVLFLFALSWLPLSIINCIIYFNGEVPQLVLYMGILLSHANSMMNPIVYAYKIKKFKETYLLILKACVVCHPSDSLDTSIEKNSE
- Method Summary: Displacement of [125I]I-AB-MECA from recombinant human adenosine A3 receptor expressed in CHO cell membranes
Write the answer as a number in nM, unit excluded.

These solved cases illustrate the format of a correct answer.
Clc1ccc(C#Cc2nc(N[C@@H]3CCOC3)c3nc[nH]c3n2)s1 32
CCNc1nc(C#Cc2ccc(Cl)s2)nc2[nH]cnc12 33.1
O[C@H]1CCC[C@@H]1Nc1nc(C#Cc2ccc(Cl)s2)nc2[nH]cnc12 11.7
CNc1nc(C#Cc2ccc(Cl)s2)nc2[nH]cnc12 79.2

What Ki value was documented for this compound, COc1cc(CCNc2nc(C#Cc3ccc(Cl)s3)nc3[nH]cnc23)ccc1O ? 6820

// same read-out, input: OC[C@H]1O[C@@H](n2cnc3c(NCCc4ccccc4)ncnc32)[C@H](O)[C@@H]1O 2.1

// same read-out, input: Clc1ccc(C#Cc2nc(N[C@H]3C[C@H]4CC[C@@H]3C4)c3nc[nH]c3n2)s1 20.6

src = ChEMBL document CHEMBL4368860
